Target: T1, human somatostatin receptor subtype 5 (human, UniProt P35346 1-364)
T1 construct: whole, on cells; also called SSTR5; SSTR-5
T1 sequence (P35346 whole entry): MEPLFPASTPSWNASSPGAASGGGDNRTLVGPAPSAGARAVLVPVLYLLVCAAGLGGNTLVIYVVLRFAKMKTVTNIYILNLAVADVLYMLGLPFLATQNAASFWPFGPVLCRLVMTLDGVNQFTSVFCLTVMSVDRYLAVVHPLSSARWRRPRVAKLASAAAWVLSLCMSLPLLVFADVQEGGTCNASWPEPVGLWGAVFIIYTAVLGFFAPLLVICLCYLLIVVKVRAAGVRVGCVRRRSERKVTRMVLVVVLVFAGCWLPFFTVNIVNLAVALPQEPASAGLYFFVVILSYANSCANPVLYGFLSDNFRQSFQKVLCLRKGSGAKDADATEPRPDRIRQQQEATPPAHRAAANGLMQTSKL
Test: radioligand displacement, CHO-K1 membranes expressing human SSTR5; competitor [125I-Tyr11]SS-14
pIC50: −log10 of the molar value. Where no end group is shown, it is not given here. [ ]: non-standard residue; d: D form.

BINDER	pIC50
[dF]FW[dW]KTFT-NH2 (also called SSTR5 preferential agonist; SSTR5 selective agonist) [Compound 5: D-Phe-Phe-Trp-D-Trp-Lys-Thr-Phe-Thr-NH2]	8.62
